assay: Caco-2 cell permeability test; assay type: in vitro ADME; conditions: human, pH 7.4, Caco-2, 10 μM, A to B
assay-readout: Papp A→B at 120 min, 10 μM (×10⁻⁶ cm/s)

Solved entries (count: 4):
{"columns": ["molecule", "reading-unit", "Papp A→B at 120 min, 10 μM"],
 "data": [
  ["COc1cc(C(=O)NC2CC2)ccc1NCC#Cc1nc2c(NC3CC[C@@H](N4CC5(COC5)C4)C[C@@H]3F)cccn2c1CC(F)(F)F (stereo partly drawn) [Compound 54]", "×10⁻⁶ cm/s", 2.3],
  ["CNC(=O)c1ccc(NCC#Cc2nc3c(NC4CC[C@@H](N5CC6(COC6)C5)C[C@@H]4F)cccn3c2CC(F)(F)F)c(OCF)c1 (stereo partly drawn) [Compound 58]", "×10⁻⁶ cm/s", 2.41],
  ["CNC(=O)c1ccc(NCC#Cc2nc3c(NC4CCC(N5CC6(COC6)C5)CC4F)cccn3c2CC(F)(F)F)c(OC)c1 (single isomer, unassigned) [Compound 35-6i]", "×10⁻⁶ cm/s", 2.66],
  ["COc1cc(C(=O)N(C)C)ccc1NCC#Cc1nc2c(NC3CC[C@@H](N4CC5(COC5)C4)C[C@@H]3F)cccn2c1CC(F)(F)F (stereo partly drawn) [Compound 47]", "×10⁻⁶ cm/s", 3.97]
]}

(1) CNC(=O)c1ccc(NCC#Cc2nc3c(N[C@@H]4CCN(C)C[C@@H]4F)cccn3c2CC(F)(F)F)c(OC)c1 [Compound 5]
(2) [2H]C([2H])([2H])NC(=O)c1ccc(NCC#Cc2nc3c(NC4CC[C@@H](N5CC6(COC6)C5)C[C@@H]4F)cccn3c2CC(F)(F)F)c(OC([2H])([2H])[2H])c1 (stereo partly drawn) [Compound 64]
Could you kindly indicate whether 1 or 2 has the higher Papp A→B at 120 min, 10 μM value? Pick one and reply with its label.
2

----------
target: p53 Y220C (Homo sapiens, UniProt P04637, P309S/R273H/Y220C); construct: a truncated mutant containing only amino acids 94-312 of p53; made in house; host or cells: E. coli; experiment: DNA binding test (HTRF): binding of P53Y220C protein to DNA; type: biochemical; conditions: HTRF, activation of p53 Y220C (aa 94-312) binding to biotin DNA
Sequence (P04637 94-312, stated change not applied): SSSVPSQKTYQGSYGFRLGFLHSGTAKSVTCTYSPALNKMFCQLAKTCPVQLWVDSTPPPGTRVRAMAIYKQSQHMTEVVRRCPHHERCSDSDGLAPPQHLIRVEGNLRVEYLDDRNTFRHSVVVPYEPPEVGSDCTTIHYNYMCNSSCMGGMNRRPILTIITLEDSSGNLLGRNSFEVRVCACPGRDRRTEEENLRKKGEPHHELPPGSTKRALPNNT
assay-readout: EC50

{"columns": ["compound", "EC50"],
 "data": [
  ["CN1CCC(Nc2cccn3c(CC(F)(F)F)c(-c4nnc(CNC(=O)c5cnn(C6CCOC6)c5)s4)nc23)CC1 (centres unmarked) [Compound 22]", "0.1 to 0.5 µM"]
]}

Please look at this compound and report its EC50: CN1CCC(Nc2cccn3c(CC(F)(F)F)c(-c4nnc(CNC(=O)c5cnn(Cc6ccccc6)c5)s4)nc23)CC1 [Compound 23]
0.1 to 0.5 µM

Please look at this compound and report its EC50: [2H]C([2H])([2H])NC(=O)c1ccc(NCC#Cc2nc3c(NC4CC[C@@H](N5CC6(COC6)C5)C[C@@H]4F)cccn3c2CC(F)(F)F)c(OC([2H])([2H])[2H])c1 (some centres unmarked) [Compound 64]
< 0.1 µM

Please look at this compound and report its EC50: CNC(=O)c1ccc(NCC#Cc2nc3c(NC4CCN(C(C)C)CC4F)cccn3c2CC(F)(F)F)c(OC)c1 (centres unmarked) [Compound 20]
0.5 to 1 µM

Please look at this compound and report its EC50: CNC(=O)c1ccc(NCC#Cc2nc3c(NC4CCC(N5CC6(COC6)C5)CC4F)cccn3c2CC(F)(F)F)c(OC)c1 (single isomer, unassigned) [Compound 35-6h]
< 0.1 µM

----------
system: NUGC-3 cells; assay: NUGC-3 cell proliferation assay (CTG); format: cell-based, human; settings: Homo sapiens, NUGC-3, 144 h, 6 days, CTG
assay-readout: GI50

{"columns": ["compound", "value-reported"],
 "data": [
  ["CNC(=O)c1ccc(NCC#Cc2nc3c(NC4CCOCC4)cccn3c2CC(F)(F)F)c(OC)c1", "1000 to 5000 nM"]
]}

Please look at this compound and report its GI50: CNC(=O)c1ccc(NCC#Cc2nc3c(NC4CC[C@@H](N5CCCC5)C[C@@H]4F)cccn3c2CC(F)(F)F)c(OC)c1 (stereo partly shown)
< 1000 nM

Please look at this compound and report its GI50: CNC(=O)c1ccc(NCC#Cc2nc3c(NC4CCN(C(C)C)CC4F)cccn3c2CC(F)(F)F)c(OC)c1 (stereo not shown)
1000 to 5000 nM

Please look at this compound and report its GI50: "CNC(=O)c1ccc(NCC#Cc2nc3c(NC4CCC(F)(F)CC4)cccn3c2CC(F)(F)F)c(OC)c1"
≥ 5000 nM

Please look at this compound and report its GI50: [2H]C([2H])([2H])NC(=O)c1ccc(NCC#Cc2cc3c(NC4CCC(N5CC6(COC6)C5)CC4F)cccn3c2CC(F)(F)F)c(OC([2H])([2H])[2H])c1 (single isomer, unassigned) [Compound 74d]
< 1000 nM

Please look at this compound and report its GI50: "COc1cc(S(C)(=O)=O)ccc1NCC#Cc1nc2c(N[C@@H]3CCN(C)C[C@@H]3F)cccn2c1CC(F)(F)F"
< 1000 nM

Please look at this compound and report its GI50: "CN1CCC(Nc2cccn3c(CC(F)(F)F)c(-c4nnc(CNC(=O)c5ccn(C(C)(C)C)c5)s4)nc23)CC1"
≥ 5000 nM

Please look at this compound and report its GI50: "CNC(=O)c1ccc(NCC#Cc2nc3c(N[C@@H]4CCN(C)C[C@@H]4F)cccn3c2CC(F)(F)F)c(OC)c1"
1000 to 5000 nM

Please look at this compound and report its GI50: "CN1CCC(Nc2cccn3c(CC(F)(F)F)c(-c4nnc(CNC(=O)c5cnn(Cc6ccccc6)c5)s4)nc23)CC1"
1000 to 5000 nM

Please look at this compound and report its GI50: [2H]C([2H])([2H])NC(=O)c1ccc(NCC#Cc2nc3c(NC4CCC(N5CCOCC5)CC4F)cccn3c2CC(F)(F)F)c(OC([2H])([2H])[2H])c1 (single isomer, unassigned) [Compound 70d]
< 1000 nM

----------
target: p53 Y220C (Homo sapiens, UniProt P04637, P309S/R273H/Y220C); construct: a truncated mutant containing only amino acids 94-312 of p53; made in house; host or cells: E. coli; test: DNA binding test (HTRF): binding of P53Y220C protein to DNA; assay type: biochemical; conditions: HTRF, activation of p53 Y220C (aa 94-312) binding to biotin DNA
pEC50: −log10 of the molar value.
assay-readout: pEC50

{"columns": ["compound", "subject-of-test", "pEC50"],
 "data": [
  ["COc1cc(C(=O)N2CCC2)ccc1NCC#Cc1nc2c(N[C@@H]3CC[C@@H](N4CC5(COC5)C4)C[C@@H]3F)cccn2c1CC(F)(F)F", "p53 Y220C (Homo sapiens, UniProt P04637, P309S/R273H/Y220C)", "> 7.00"],
  ["CNC(=O)c1ccc(NCC#Cc2nc3c(NC4CCC(N(C)[C@@H]5CCOC5)CC4)cccn3c2CC(F)(F)F)c(OC)c1 (stereo partly drawn)", "p53 Y220C (Homo sapiens, UniProt P04637, P309S/R273H/Y220C)", "6.30 to 7.00"]
]}

Please look at this compound and report its pEC50: CNC(=O)c1ccc(NCC#Cc2nc3c(NC4CCC(C)(O)CC4)cccn3c2CC(F)(F)F)c(OC)c1 (stereo not drawn)
6.30 to 7.00

Please look at this compound and report its pEC50: "COc1cc(P(C)(C)=O)ccc1NCC#Cc1nc2c(N[C@@H]3CCN(C)C[C@@H]3F)cccn2c1CC(F)(F)F"
6.30 to 7.00

Please look at this compound and report its pEC50: "COc1cc(C(=O)NC2CCOCC2)ccc1NCC#Cc1nc2c(NC3CCN(C)CC3)cccn2c1CC(F)(F)F"
6.30 to 7.00

Please look at this compound and report its pEC50: "CN1CCC(Nc2cccn3c(CC(F)(F)F)c(-c4nnc(CNC(=O)c5ccn(C(C)(C)C)c5)s4)nc23)CC1"
6.30 to 7.00
